- System: RARg homodimer (NR concentration 270 nM)
- test: PBM binding z-score (relative to random genomic background probes); higher = stronger binding; sequences stand for … in GC…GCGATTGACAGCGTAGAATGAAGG
measured-property: PBM binding z-score
Simply state the number, no unit and no words.

[[record]]
residue_codes = "CTCGAAAGGTCGGGTGAGGTGAGTATACGGATAA"
assay_result = 3.43

[[record]]
residue_codes = "CCTTACGGGTCACTGACAAGTTATAGCATTTGGA"
assay_result = 4.71

[[record]]
residue_codes = "AGAATGAGGTTAAGATAAGGGAAACAGAATACAT"
assay_result = 1.69

[[record]]
residue_codes = "TCTAGTGGGTCACGGAGGTCACACACGACGGGTA"
assay_result = 7.18


Problem: Item: CGTCCTAGGTCAGCAGGTCAGTGAAAGCGACGTG Test system: RARg homodimer (NR concentration 270 nM) Read-out: PBM binding z-score Value: ?
Solution: 5.41
